- target_entity: UniProt Q8TD08
- Sequence (Q8TD08 whole entry): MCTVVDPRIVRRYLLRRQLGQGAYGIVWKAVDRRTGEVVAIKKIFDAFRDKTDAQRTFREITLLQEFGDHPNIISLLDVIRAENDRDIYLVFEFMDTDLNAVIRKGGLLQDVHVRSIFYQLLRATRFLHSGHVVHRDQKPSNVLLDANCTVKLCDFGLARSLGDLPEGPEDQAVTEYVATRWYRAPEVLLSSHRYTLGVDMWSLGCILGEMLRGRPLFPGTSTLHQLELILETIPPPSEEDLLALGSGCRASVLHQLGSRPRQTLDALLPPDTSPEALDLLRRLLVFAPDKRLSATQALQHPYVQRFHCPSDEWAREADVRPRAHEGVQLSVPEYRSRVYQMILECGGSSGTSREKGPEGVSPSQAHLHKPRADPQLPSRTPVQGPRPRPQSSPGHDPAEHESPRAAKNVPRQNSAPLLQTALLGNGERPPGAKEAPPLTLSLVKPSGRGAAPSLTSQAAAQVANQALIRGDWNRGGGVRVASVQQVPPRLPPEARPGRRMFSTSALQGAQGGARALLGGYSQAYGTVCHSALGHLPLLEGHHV
- method_description: KINOMEscan competition binding
- measurement_setup: read-out: %Inh ERK8
recorded_endpoint: inhibition at 1 µM (%)

{"columns": ["molecule", "recorded_endpoint", "unit_label", "experimental_result"],
 "data": [
  ["CS(=O)(=O)Cc1ccc(Nc2nccc(-c3c(-c4cccc(NC(=O)C5CCCCC5)c4)nn4ncccc34)n2)cc1 [UNC10225159A]", "inhibition at 1 µM", "%", 0],
  ["O=c1cc(N2CCOCC2)nc2n(Cc3cccc(Cl)c3Cl)c(C3CC3)nn12 [UNC10225469A]", "inhibition at 1 µM", "%", 13],
  ["Cn1cc(-c2cnc(N)c3c(-c4ccc5c(c4)CCN5C(=O)Cc4ccccc4)csc23)cn1 [UNC10225012A]", "inhibition at 1 µM", "%", 11],
  ["Cc1ccc(NC(=O)Nc2cccc(C(F)(F)F)c2)cc1 [UNC10225187A]", "inhibition at 1 µM", "%", 0],
  ["COc1cccc(OC)c1C(=O)Nc1cccc(-c2nn3ccccc3c2-c2ccnc(Nc3cccc(F)c3)n2)c1 [UNC10225310A]", "inhibition at 1 µM", "%", 3]
]}

Where these numbers come from: paper PMC5540273
